Where do these numbers come from? They come from the supplement of paper PMC4932681.

test system: T-47D Tam1; assay: drug sensitivity score (DSS) (DSS (dimensionless)); higher = more sensitive; extreme values may be limits of the assay; details: 4-OH-tamoxifen in medium 1 µM; 72 h
Cut-off 4 on drug sensitivity score, inclusive. At or above means label 1; below means label 0.

>  <molecule>
S=P(N1CC1)(N1CC1)N1CC1

>  <category label>
label 0

$$$$
>  <molecule>
COc1ccc(-c2ccc3c(N4CCOC[C@@H]4C)nc(N4CCOC[C@@H]4C)nc3n2)cc1CO

>  <category label>
label 1

$$$$
>  <molecule>
Nc1cccc2c1CN(C1CCC(=O)NC1=O)C2=O (centres undefined) [Lenalidomide]

>  <category label>
label 0

$$$$
>  <molecule>
CCCCCCCCc1ccc(CCC(N)(CO)CO)cc1

>  <category label>
label 0

$$$$
>  <molecule>
CCC1(c2ccc(N)cc2)CCC(=O)NC1=O (centres undefined) [Aminoglutethimide]

>  <category label>
label 0

$$$$
>  <molecule>
CN[C@@H]1C[C@H]2O[C@@](C)([C@@H]1OC)n1c3ccccc3c3c4c(c5c6ccccc6n2c5c31)C(=O)N[C@H]4O

>  <category label>
label 1

$$$$
>  <molecule>
CC(C)C[C@H](NC(=O)[C@H](Cc1ccccc1)NC(=O)c1cnccn1)B(O)O

>  <category label>
label 1

$$$$
>  <molecule>
CCOc1cc2ncc(C#N)c(Nc3ccc(OCc4ccccn4)c(Cl)c3)c2cc1NC(=O)/C=C/CN(C)C

>  <category label>
label 0

$$$$
